- measurement_target: UniProt P20309
- Sequence (P20309 whole entry): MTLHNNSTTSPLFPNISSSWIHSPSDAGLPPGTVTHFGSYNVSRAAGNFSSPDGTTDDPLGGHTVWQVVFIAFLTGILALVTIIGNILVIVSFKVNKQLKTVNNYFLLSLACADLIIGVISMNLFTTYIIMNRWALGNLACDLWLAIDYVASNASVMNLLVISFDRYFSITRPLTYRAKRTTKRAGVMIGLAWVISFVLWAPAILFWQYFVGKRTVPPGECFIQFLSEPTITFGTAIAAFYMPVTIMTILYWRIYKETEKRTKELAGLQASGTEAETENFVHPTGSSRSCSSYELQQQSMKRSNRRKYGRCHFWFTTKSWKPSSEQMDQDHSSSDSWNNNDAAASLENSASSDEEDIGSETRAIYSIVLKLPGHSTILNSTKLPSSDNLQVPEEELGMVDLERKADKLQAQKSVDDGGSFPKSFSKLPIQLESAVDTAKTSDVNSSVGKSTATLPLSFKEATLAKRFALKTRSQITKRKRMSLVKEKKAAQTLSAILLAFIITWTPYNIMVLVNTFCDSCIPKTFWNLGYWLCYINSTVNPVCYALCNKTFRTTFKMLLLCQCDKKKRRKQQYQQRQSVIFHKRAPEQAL
- assay_details: Antagonist activity at human muscarinic M3 receptor expressed in CHO-K1 cells assessed as inhibition of acetylcholine-induced calcium mobilization
Give IC50 for every item shown.

Value of measured IC50 for the entry `CCN1CCN(c2ccc(NC(=O)c3ccccc3)cc2Cl)CC1` : > 10 µM

Value of measured IC50 for the entry `CCN1CCN(c2ccc(NC(=O)c3cc(C(F)(F)F)ccc3C(F)(F)F)cc2Cl)CC1` : 4.2 µM

Value of measured IC50 for the entry `CCN1CCN(c2ccc(NC(=O)c3ccc(F)c(F)c3)cc2Cl)CC1` : > 10 µM

Value of measured IC50 for the entry `CCN1CCN(c2ccc(NC(=O)c3cccc(C(F)(F)F)c3)cc2Cl)CC1` : 4.3 µM

Value of measured IC50 for the entry `CCN1CCN(c2ccc(NC(=O)c3cccc(C)c3)cc2Cl)CC1` : > 10 µM

Value of measured IC50 for the entry `CCN1CCN(c2ccc(NC(=O)c3ccccc3OC)cc2Cl)CC1` : 5.6 µM

Value of measured IC50 for the entry `CCN1CCN(c2ccc(NC(=O)c3c(F)c(F)c(F)c(F)c3F)cc2Cl)CC1` : 3.7 µM

Value of measured IC50 for the entry `CCN1CCN(c2ccc(NC(=O)c3ccc(OC)cc3)cc2Cl)CC1` : > 10 µM

Value of measured IC50 for the entry `CCN1CCN(c2ccc(NC(=O)c3ccc(C)cc3)cc2Cl)CC1` : 3.7 µM

Value of measured IC50 for the entry `CCN1CCN(c2ccc(NC(=O)c3cc(C(F)(F)F)cc(C(F)(F)F)c3)cc2Cl)CC1` : > 10 µM

###

- measurement_target: Muscarinic acetylcholine receptor M1 (Homo sapiens, UniProt P11229)
- Sequence (P11229 whole entry): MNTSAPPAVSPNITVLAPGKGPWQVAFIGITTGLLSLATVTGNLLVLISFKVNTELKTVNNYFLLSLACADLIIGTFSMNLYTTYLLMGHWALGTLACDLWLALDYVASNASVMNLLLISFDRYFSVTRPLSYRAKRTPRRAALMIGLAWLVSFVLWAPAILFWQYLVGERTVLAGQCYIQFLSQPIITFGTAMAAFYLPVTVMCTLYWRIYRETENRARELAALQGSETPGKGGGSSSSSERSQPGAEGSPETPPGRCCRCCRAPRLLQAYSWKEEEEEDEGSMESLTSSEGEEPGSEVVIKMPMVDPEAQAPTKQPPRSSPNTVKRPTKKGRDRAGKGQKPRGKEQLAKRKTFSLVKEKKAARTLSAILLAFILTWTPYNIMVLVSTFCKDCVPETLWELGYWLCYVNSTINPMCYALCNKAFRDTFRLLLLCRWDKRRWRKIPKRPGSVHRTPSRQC
- assay_details: Antagonist activity at human muscarinic M1 receptor expressed in CHO-K1 cells assessed as inhibition of acetylcholine-induced calcium mobilization
recorded_metric: pIC50
pIC50 here: minus log base 10 of the concentration, concentration in moles per litre.

Value of measured pIC50 for the entry `CCN1CCN(c2ccc(NC(=O)c3ccccc3Cl)cc2Cl)CC1` : 6.02

Value of measured pIC50 for the entry `CCN1CCN(c2ccc(NC(=O)c3cccc(C(F)(F)F)c3)cc2Cl)CC1` : 5.54

Value of measured pIC50 for the entry `CCN1CCN(c2ccc(NC(=O)c3ccc(OC)cc3)cc2Cl)CC1` : 5.49

Value of measured pIC50 for the entry `CCN1CCN(c2ccc(NC(=O)c3ccc(C)cc3)cc2Cl)CC1` : 5.54

Value of measured pIC50 for the entry `CCN1CCN(c2ccc(NC(=O)c3cc(C(F)(F)F)ccc3C(F)(F)F)cc2Cl)CC1` : 6.31

Value of measured pIC50 for the entry `CCN1CCN(c2ccc(NC(=O)c3ccccc3OC)cc2Cl)CC1` : 6.09

Value of measured pIC50 for the entry `CCN1CCN(c2ccc(NC(=O)c3ccc(F)c(F)c3)cc2Cl)CC1` : 5.33

Value of measured pIC50 for the entry `CCN1CCN(c2ccc(NC(=O)c3cccc(C)c3)cc2Cl)CC1` : 5.68

Value of measured pIC50 for the entry `CCN1CCN(c2ccc(NC(=O)c3ccccc3)cc2Cl)CC1` : 5.49

Value of measured pIC50 for the entry `CCN1CCN(c2ccc(NC(=O)c3c(F)c(F)c(F)c(F)c3F)cc2Cl)CC1` : 6.46

Value of measured pIC50 for the entry `CCN1CCN(c2ccc(NC(=O)c3cc(C(F)(F)F)cc(C(F)(F)F)c3)cc2Cl)CC1` : 5.59

###

- measurement_target: Muscarinic acetylcholine receptor M4 (Homo sapiens, UniProt P08173)
- Sequence (P08173 whole entry): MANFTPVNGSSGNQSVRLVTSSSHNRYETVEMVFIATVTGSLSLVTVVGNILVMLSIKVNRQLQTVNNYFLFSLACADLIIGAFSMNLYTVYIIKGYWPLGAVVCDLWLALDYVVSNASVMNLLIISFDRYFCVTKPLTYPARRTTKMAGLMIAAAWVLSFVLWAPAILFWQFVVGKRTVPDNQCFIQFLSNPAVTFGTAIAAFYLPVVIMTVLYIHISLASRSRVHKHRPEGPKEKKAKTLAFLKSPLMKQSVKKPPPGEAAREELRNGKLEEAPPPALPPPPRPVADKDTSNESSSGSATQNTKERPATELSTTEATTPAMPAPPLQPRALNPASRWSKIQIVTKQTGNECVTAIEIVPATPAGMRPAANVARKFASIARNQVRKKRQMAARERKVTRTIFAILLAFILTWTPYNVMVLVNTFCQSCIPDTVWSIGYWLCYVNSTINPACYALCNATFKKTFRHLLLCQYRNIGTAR
- assay_details: Antagonist activity at human muscarinic M4 receptor expressed in CHO-K1 cells coexpressing Gqi5 chimeric G-protein assessed as inhibition of acetylcholine-induced calcium mobilization
recorded_metric: IC50 (µM)
The figure you give is taken to be in µM; do not add the unit.

Here `CCN1CCN(c2ccc(NC(=O)c3cccc(C(F)(F)F)c3)cc2Cl)CC1` was tested on Muscarinic acetylcholine receptor M4 (Homo sapiens, UniProt P08173), and its IC50 came to 3.7

Here `CCN1CCN(c2ccc(NC(=O)c3cc(C(F)(F)F)ccc3C(F)(F)F)cc2Cl)CC1` was tested on Muscarinic acetylcholine receptor M4 (Homo sapiens, UniProt P08173), and its IC50 came to 1.5

Here `CCN1CCN(c2ccc(NC(=O)c3cc(C(F)(F)F)cc(C(F)(F)F)c3)cc2Cl)CC1` was tested on Muscarinic acetylcholine receptor M4 (Homo sapiens, UniProt P08173), and its IC50 came to 3.7

###

- measurement_target: Muscarinic acetylcholine receptor M2 (Homo sapiens, UniProt P08172)
- Sequence (P08172 whole entry): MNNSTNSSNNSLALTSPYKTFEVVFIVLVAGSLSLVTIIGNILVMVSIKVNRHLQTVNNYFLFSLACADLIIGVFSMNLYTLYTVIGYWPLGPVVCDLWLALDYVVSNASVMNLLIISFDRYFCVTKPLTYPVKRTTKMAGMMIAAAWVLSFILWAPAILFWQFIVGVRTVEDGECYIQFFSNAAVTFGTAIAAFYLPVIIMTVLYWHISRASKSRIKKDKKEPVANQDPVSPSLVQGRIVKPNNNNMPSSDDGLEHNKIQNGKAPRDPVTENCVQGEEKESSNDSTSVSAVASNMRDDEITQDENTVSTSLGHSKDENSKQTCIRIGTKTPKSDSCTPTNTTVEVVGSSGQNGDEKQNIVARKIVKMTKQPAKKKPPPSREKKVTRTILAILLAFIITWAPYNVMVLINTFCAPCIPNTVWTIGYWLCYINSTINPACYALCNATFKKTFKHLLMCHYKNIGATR
- assay_details: Antagonist activity at human muscarinic M2 receptor expressed in CHO-K1 cells coexpressing Gqi5 chimeric G-protein assessed as inhibition of acetylcholine-induced calcium mobilization
Give IC50 for every item shown.

Value of measured IC50 for the entry `CCN1CCN(c2ccc(NC(=O)c3cccc(C(F)(F)F)c3)cc2Cl)CC1` : > 10 µM

Value of measured IC50 for the entry `CCN1CCN(c2ccc(NC(=O)c3cc(C(F)(F)F)cc(C(F)(F)F)c3)cc2Cl)CC1` : > 10 µM

Value of measured IC50 for the entry `CCN1CCN(c2ccc(NC(=O)c3cc(C(F)(F)F)ccc3C(F)(F)F)cc2Cl)CC1` : 2.7 µM

###

- measurement_target: UniProt P08173
- assay_details: Antagonist activity at human muscarinic M4 receptor expressed in CHO-K1 cells coexpressing Gqi5 chimeric G-protein assessed as inhibition of acetylcholine-induced calcium mobilization
pIC50: −log10 of the molar value.
Give pIC50 for every item shown.

Value of measured pIC50 for the entry `CCN1CCN(c2ccc(NC(=O)c3ccc(C)cc3)cc2Cl)CC1` : < 5.00

Value of measured pIC50 for the entry `CCN1CCN(c2ccc(NC(=O)c3ccc(F)c(F)c3)cc2Cl)CC1` : < 5.00

Value of measured pIC50 for the entry `CCN1CCN(c2ccc(NC(=O)c3ccccc3)cc2Cl)CC1` : < 5.00
